Target: human monoacylglycerol lipase (hMAGL) (Homo sapiens)
Sequence (Q99685 1-303): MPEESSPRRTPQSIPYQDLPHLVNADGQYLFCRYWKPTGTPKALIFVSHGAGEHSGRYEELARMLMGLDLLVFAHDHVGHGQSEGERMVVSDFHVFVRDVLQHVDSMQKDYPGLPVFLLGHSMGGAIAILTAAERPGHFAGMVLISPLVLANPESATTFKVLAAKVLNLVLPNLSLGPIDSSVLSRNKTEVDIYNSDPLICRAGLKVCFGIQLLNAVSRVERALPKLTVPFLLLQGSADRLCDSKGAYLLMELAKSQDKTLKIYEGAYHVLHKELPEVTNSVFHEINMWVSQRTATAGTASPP
Assay: spectrophotometric assay with 4-nitrophenyl acetate, recombinant human MAGL, dose-response
Readout: pIC50
The quantity pIC50 is defined as the negative base-10 logarithm of the molar concentration.

For CCCCCCCCCCCCCCCCOC(=O)CCCCCCCCC [3b, Hexadecyl decanoate] on human monoacylglycerol lipase (hMAGL) (Homo sapiens), measured pIC50 was 4.44
